Every entry's value here was drawn from ChEMBL document CHEMBL3988442.

Assayed target: Arginase-2, mitochondrial (Homo sapiens) (UniProt P78540)
Sequence (P78540 whole entry): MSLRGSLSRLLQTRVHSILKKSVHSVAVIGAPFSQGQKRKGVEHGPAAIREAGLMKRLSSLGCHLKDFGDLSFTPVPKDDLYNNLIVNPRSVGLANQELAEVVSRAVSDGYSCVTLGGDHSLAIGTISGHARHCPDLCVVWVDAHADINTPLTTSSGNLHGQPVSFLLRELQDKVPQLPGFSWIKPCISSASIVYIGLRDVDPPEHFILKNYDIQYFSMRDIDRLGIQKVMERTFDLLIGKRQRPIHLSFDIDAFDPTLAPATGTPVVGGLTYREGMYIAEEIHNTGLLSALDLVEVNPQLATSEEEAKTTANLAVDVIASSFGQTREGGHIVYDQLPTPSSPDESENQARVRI
Test summary: in vitro enzyme assay to detect the production of urea directly proportional to the activity of Arginase II; also: in the data most compounds retested in dose-response had high values
Assay type: functional
Parameters: scale not given: direction of the effect not stated beside the values
Details: 30 µM
Endpoint: Percent Effect (%)
One number for each entry, in %.

Recorded Percent Effect, per entry:
| Molecule | Reported |
| --- | --- |
| CC1=Nc2c(c(=O)[nH]n2C2CCCCC2)C(c2cccnc2)S1 (stereo unspecified) | 2.7 |
| CCS(=O)(=O)CC(=O)N1CCCC1c1noc(C2CC2)n1 (stereo unspecified) | 2.7 |
| CN(Cc1cccnc1)C1CC2(CCN(Cc3cccnc3)CC2)C1 | -12.4 |

Please give Percent Effect for each item listed below.
1. CN(Cc1ccco1)[C@@H]1CN(Cc2nccn2C)[C@@H]2CCCO[C@H]12
2. CN(Cc1cccnc1)C1CC2(CCN(Cc3ccccn3)CC2)C1
3. NS(=O)(=O)CCNC(=O)c1cc(Br)c2c(c1)OCCO2
4. CN(Cc1ccco1)[C@@H]1CN(CC2CCOCC2)[C@@H]2CCCO[C@H]12
5. COc1ccc(NC2CCc3c2[nH]c(=O)n(C2CCCCC2)c3=O)cc1 (stereo unspecified)

1: 11.3; 2: 2.7; 3: 8.11; 4: 4.87; 5: 4.87

Please give Percent Effect for each item listed below.
1. COc1ccc(-c2nc(CN3CC(n4cccn4)C3)no2)cc1
2. O=c1[nH]c2c(c(=O)n1C1CCCCC1)CCC2NCc1ccccc1 (stereo unspecified)
3. Cc1cccc(-c2nc(CN3CC(n4nc(C)cc4C)C3)no2)c1

[0.54, 9.19, 5.95]

----------
Assayed target: AMP-activated protein kinase, AMPK (Homo sapiens) (UniProt P54646+O43741+P54619+Q9UGJ0+Q9Y478+Q13131+Q9UGI9)
Test summary: AMP-dependent Kinase enzyme assay. An in vitro enzyme assay that detects ADP turnover that is directly proportional to AMPK activity. This uses naive AMPK that is activated during the assay with MK-8722
Type: functional
Parameters: scale not given: direction of the effect not stated beside the values
Details: 30 µM
Endpoint: Percent Effect

Recorded Percent Effect, per entry:
| Compound | Percent Effect |
| --- | --- |
| CN(Cc1nc(CS(C)(=O)=O)no1)c1ccccc1 | 0.0849% |
| OC(CNCCc1nnc2ccccn12)c1ccc(F)c(F)c1 (centres undefined) | 14.5% |
| NC(=O)CN1CCC(c2noc3cc(F)ccc23)CC1 | 12.7% |

Please give Percent Effect for each item listed below.
1. Cc1cc(C)n(C2CN(C(=O)c3cn4ccsc4n3)C2)n1
2. Cc1cc(CNC(=O)N2CCOC(c3ccccc3Cl)C2)no1 (centres undefined)
3. CC(CN1CCOC1=O)NC(=O)c1ccccc1Oc1ccccc1 (centres undefined)
4. CC(=O)NCC1CCCN(C(=O)Cc2c(C)noc2C)C1 (centres undefined)
5. Cc1cc(C)n2c(CNCCNc3ccccc3)cnc2n1

1: -4.27%; 2: -7.62%; 3: 8.72%; 4: -3.15%; 5: -15.1%

----------
Assayed target: Ubiquitin-activating enzyme e1, putative (Leishmania donovani (strain BPK282A1)) (UniProt E9BSI1)
Sequence (E9BSI1 as listed by the source): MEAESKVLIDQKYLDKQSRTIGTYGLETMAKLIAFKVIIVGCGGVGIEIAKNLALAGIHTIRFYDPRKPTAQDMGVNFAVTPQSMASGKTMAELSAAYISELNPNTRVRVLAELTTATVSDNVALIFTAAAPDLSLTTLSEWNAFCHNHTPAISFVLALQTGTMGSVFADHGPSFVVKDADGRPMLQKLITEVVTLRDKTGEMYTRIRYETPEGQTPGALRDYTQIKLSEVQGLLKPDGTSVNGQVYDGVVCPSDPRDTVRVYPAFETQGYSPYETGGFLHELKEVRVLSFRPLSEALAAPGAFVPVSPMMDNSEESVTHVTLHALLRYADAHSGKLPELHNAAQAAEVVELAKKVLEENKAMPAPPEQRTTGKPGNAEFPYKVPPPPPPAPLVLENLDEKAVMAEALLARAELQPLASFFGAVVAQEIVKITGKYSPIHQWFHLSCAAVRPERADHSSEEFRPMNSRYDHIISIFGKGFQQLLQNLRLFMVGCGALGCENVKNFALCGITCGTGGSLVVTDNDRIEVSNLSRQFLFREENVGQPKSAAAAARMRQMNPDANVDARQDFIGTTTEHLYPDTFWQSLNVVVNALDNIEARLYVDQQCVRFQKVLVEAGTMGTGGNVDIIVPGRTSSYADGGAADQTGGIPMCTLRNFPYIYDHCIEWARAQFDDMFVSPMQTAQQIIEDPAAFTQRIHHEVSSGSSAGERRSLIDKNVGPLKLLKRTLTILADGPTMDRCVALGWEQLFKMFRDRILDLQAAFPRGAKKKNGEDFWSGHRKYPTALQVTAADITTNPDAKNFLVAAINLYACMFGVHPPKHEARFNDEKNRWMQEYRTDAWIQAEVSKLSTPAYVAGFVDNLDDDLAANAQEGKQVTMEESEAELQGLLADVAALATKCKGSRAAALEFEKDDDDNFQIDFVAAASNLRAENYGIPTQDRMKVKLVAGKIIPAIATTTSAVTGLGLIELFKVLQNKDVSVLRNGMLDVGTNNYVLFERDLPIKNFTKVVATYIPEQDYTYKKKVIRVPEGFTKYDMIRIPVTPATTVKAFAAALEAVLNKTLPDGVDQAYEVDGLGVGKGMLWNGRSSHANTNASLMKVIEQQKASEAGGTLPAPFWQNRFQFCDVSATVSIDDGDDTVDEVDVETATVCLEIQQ
Test summary: Leishmania donovani Ubiquitin Activating Enzyme (LdE1)
Assay type: functional
Parameters: scale not given: direction of the effect not stated beside the values
Details: 30 µM
Results with a measured potency or affinity are listed apart.
Endpoint: Percent Effect (%)
Give bare numbers, in %.

Please give Percent Effect for each item listed below.
1. CN(C)CC1CN(Cc2coc(-c3cccs3)n2)CCO1 (configuration not stated)
2. CCNc1cc2c(nn1)CCN(C(=O)c1cc3nc(C)ccc3o1)C2
3. Cn1ccc(C(=O)NCc2cccc(N3CCCCC3=O)c2)cc1=O
4. CCOc1ncccc1NC(=O)NC1CCCN(c2ncccn2)C1 (configuration not stated)
5. O=C(NCCCNc1ccccc1)c1scnc1Cl
6. CC(NC(=O)CN(C)S(C)(=O)=O)c1nnc2n1CCCCC2 (configuration not stated)
7. Cn1cc(NC(=O)N2CCC(c3ccccc3)CC2)ccc1=O

1. 13.3
2. 13.3
3. 13
4. 23.4
5. 13.3
6. 13
7. 51.3

----------
Assayed target: AMP-activated protein kinase, AMPK (Homo sapiens) (UniProt P54646+O43741+P54619+Q9UGJ0+Q9Y478+Q13131+Q9UGI9)
Test summary: AMP-dependent Kinase enzyme assay. An in vitro enzyme assay that detects ADP turnover that is directly proportional to AMPK activity. This uses naive AMPK that is activated during the assay with MK-8722
Format: functional
Design: scale not given: direction of the effect not stated beside the values
Details: 30 µM
Endpoint: Percent Effect (%)
Answers are plain numbers, in %.

Recorded Percent Effect, per entry:
| Compound | Unit of measure | Percent Effect |
| --- | --- | --- |
| Cc1n[nH]c(C)c1CCN(C)c1ccc(-c2nc(C3CC3)no2)cn1 | % | -6.17 |
| NC(=O)C1CCN(c2ccc(C(=O)N3CCc4ccccc43)cn2)C1 (stereo unspecified) | % | 6.03 |

Please give Percent Effect for each item listed below.
1. NC(=O)NC1CCN(Cc2ccc(Br)c(F)c2)CC1
2. O=C(Cc1c(F)cccc1Cl)Nc1cc(N2CCOCC2)ncn1
3. CC(Oc1ccc2c(c1)OCO2)C(=O)N1CCC(c2ncc[nH]2)CC1 (stereo unspecified)
4. CCc1nc2n(n1)CC(NCC1=Cc3ccc(OC)cc3OC1)CC2 (stereo unspecified)

1. 4.07
2. 5.35
3. 4.41
4. 8.35

Please give Percent Effect for each item listed below.
1. Nc1nccnc1C(=O)NC1CCN(Cc2ccccc2)C1 (stereo unspecified)
2. CN1CCCC(CNC(=O)CN(C)S(=O)(=O)c2cccnc2)C1 (stereo unspecified)
3. CS(=O)(=O)c1ccc(-c2cc(C3CC3)c(C#N)c(N)n2)cc1
4. CC(C)c1ccc(CN2CCCC3(CC2)CN(C)C(=O)O3)cc1 (stereo unspecified)
5. Cc1c(Br)cccc1C(=O)Nc1cc(C(N)=O)n(C)c1

[7.89, -10.7, 12.5, 9.6, 3.87]

----------
System: Trypanosoma cruzi
Test summary: Trypanosoma cruzi phosphomannomutase and mannose-1-phosphate guanylyltransferase assay
Format: functional
Set-up: scale not given: direction of the effect not stated beside the values
Details: 10 µM
Endpoint: Percent Effect
Please format your answer as a value with the unit trailing.

Recorded Percent Effect, per entry:
| Molecule | Assayed target | Percent Effect |
| --- | --- | --- |
| Cc1cccc(N2CCN(C(=O)Nc3cnn(CC(N)=O)c3)CC2)c1 | Trypanosoma cruzi | 5.73% |
| CS(=O)(=O)N1CCC(c2nnc3ccc(C(=O)N4CCCC4)cn23)C1 (centres undefined) | Trypanosoma cruzi | -3.8% |
| O=C1CCC2(CCN(Cc3ccc(F)cc3)CC2)N1Cc1ccccc1 | Trypanosoma cruzi | -2.63% |

Please give Percent Effect for each item listed below.
1. CN(C)c1ccc(NC(=O)NCc2ccccn2)cn1
2. COc1ccc(CN2CCC3(CC(Nc4ccncn4)C3)C2)c(OC)c1 (centres undefined)
3. O=c1cccnn1CC1CN(Cc2ccsc2)Cc2nccn2C1 (centres undefined)

1. -3.92%
2. -2.76%
3. -1.66%

Please give Percent Effect for each item listed below.
1. Cc1cc(NC(=O)N(CC2CCOC2)C2CC2)no1 (centres undefined)
2. CCCN1CCCn2nc(CNS(=O)(=O)c3cccc(C#N)c3)cc2C1
3. CC(=O)N1[C@@H](C(=O)NCC2CC2)C[C@@H]2CN(Cc3ccco3)C[C@@H]21
4. O=C(c1ccco1)N1CCC2(CCC(=O)N2Cc2cccc(F)c2)CC1
5. CC(C)N(C)C(=O)CN1CCCC(c2ccc(C(=O)O)cc2)C1 (centres undefined)
6. O=C(NCCOc1ccc(Cl)cc1)N1CCS(=O)(=O)CC1

1. 1.21%
2. 1.84%
3. -0.938%
4. -1.31%
5. 0.485%
6. 6.1%

Please give Percent Effect for each item listed below.
1. Cc1csc(N2CCCN(C(=O)c3c(C)oc(C)c3C)CC2)n1
2. c1cnnc(N2CCCC2CNCc2nc(C3CC3)no2)c1 (centres undefined)
3. Cc1ccccc1CC(=O)N(C)C1CCCC1
4. O=C(c1ncccn1)N1C[C@H]2CCC[C@@]2(COCc2cccnc2)C1
5. COCCN1CCN(Cc2cccc(OCC(N)=O)c2)CC1C (centres undefined)
6. CCn1ccnc1CN1CCCN(C(=O)c2cc(Cl)c[nH]2)CC1
7. CCc1nc(C2CCCN2CCn2cncn2)no1 (centres undefined)

["4.22%", "12.1%", "-4.62%", "-1.46%", "-3.81%", "7.98%", "-0.187%"]

----------
Assayed target: Protein translocase subunit SecA (Escherichia coli (strain K12)) (UniProt P10408)
Sequence (P10408 whole entry): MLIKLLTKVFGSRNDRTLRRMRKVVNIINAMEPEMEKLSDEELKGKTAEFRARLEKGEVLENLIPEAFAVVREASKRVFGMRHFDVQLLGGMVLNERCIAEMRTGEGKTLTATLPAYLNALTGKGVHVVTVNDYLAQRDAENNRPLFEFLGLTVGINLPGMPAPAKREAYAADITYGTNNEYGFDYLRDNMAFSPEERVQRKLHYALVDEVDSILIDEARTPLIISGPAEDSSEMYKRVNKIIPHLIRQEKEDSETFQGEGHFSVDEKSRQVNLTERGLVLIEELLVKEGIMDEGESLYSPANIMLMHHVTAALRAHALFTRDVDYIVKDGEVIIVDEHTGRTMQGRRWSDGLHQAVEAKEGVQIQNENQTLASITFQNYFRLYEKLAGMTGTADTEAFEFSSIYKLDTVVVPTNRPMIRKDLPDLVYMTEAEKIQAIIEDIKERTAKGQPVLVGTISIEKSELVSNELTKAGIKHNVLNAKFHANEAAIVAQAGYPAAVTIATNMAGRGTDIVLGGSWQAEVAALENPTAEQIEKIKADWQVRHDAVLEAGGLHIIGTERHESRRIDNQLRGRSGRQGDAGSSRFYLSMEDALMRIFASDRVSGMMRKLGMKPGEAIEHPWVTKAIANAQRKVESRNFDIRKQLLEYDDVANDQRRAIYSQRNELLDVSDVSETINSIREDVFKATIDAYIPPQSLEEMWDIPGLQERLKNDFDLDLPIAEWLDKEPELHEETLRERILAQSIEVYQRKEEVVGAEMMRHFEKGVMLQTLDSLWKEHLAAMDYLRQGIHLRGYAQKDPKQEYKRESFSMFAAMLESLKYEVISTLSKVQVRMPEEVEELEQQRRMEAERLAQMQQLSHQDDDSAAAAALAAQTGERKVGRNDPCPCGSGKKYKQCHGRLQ
Test summary: Assay to Identify E. coli SecA ATPase Inhibitors
Format: functional
Design: scale not given: direction of the effect not stated beside the values
Details: 30 µM
Entries with a potency or affinity are not part of this list.
Endpoint: Percent Effect (%)
One number for each entry, in %.

| Compound | Unit of measure | Reported |
| --- | --- | --- |
| COc1ccc(OC)c(Sc2ncccc2C(=O)N(C)CCC#N)c1 | % | -2.48 |
| CCCc1cc(CNC(=O)C2CCOc3ccccc3C2)on1 (stereo not given) | % | -1.27 |
| O=C(NCC1CCSCC1)N(CCCO)C1CCc2ccccc21 (stereo not given) | % | -1.28 |

Please give Percent Effect for each item listed below.
1. Cc1cc2c(=O)n3c(nc2s1)CCN(Cc1cnc(C(C)C)nc1)CC3
2. COc1c(C2CCCN2C(=O)c2cncnc2C)c(C)nn1C (stereo not given)
3. Cn1cccc1-c1cc(C(=O)N2CCCC2c2cccnc2)[nH]n1 (stereo not given)
4. CC(C)CN1CCC2(CCN(Cc3ccoc3)CC2)C1=O
5. CCc1[nH]ncc1C(=O)N1CCCC(n2nc(C)nc2C)C1 (stereo not given)

[-1.05, 0.687, -6.61, -1.85, -6.31]

Please give Percent Effect for each item listed below.
1. CCc1ccsc1C(=O)N1CCN(C(=O)CC(F)(F)F)CC1
2. Cc1cncc(C2CCCN(C(=O)c3cccn3C)C2)n1 (stereo not given)
3. COc1ccccc1CCN(C)C(=O)NC(C)c1nncn1C (stereo not given)

2.23
-1.26
-6.85

Please give Percent Effect for each item listed below.
1. O=C(NCCC1=CCCCC1)C1CCCN(c2ccc3nncn3n2)C1 (stereo not given)
2. COCCc1ncc(CN2CCC(Oc3ccccc3C)CC2)cn1
3. Cc1nc(C)n(CC2CCCN2Cc2nc3ccccc3nc2C)n1 (stereo not given)
4. Cc1ncc(S(C)(=O)=O)c(C2CCCNC2)n1 (stereo not given)
5. Cn1cc(-c2nc(CNCCn3cccn3)cs2)cn1
6. O=C(c1ccnnc1)N1CCC2(CC1)CC(N1CCOCC1)C2
7. COC(=O)NCc1cc2n(n1)CCCN(C(C)=O)C2

1. -2.76
2. -2.3
3. -4.08
4. -0.171
5. 3.44
6. 0.141
7. -9.99
